molecular target: GABAA receptors composed of the α1β2γ2 subunits (GABRA1/GABRB2/GABRG2) (Homo sapiens, UniProt P14867+P47870); construct: expressed in transfected cells; host or cells: Xenopus laevis oocytes, injected (ratio 1:1:1); experiment: Two Electrode Voltage Clamp (TEVC), GABA receptor potentiation in Xenopus laevis oocytes, α1β2γ2; format: cell-based; conditions: 10 μM compound, 10 μM GABA, read-out: GABA (α1β2γ2) % efficacy at 10 μM
Sequence (P14867 28-456): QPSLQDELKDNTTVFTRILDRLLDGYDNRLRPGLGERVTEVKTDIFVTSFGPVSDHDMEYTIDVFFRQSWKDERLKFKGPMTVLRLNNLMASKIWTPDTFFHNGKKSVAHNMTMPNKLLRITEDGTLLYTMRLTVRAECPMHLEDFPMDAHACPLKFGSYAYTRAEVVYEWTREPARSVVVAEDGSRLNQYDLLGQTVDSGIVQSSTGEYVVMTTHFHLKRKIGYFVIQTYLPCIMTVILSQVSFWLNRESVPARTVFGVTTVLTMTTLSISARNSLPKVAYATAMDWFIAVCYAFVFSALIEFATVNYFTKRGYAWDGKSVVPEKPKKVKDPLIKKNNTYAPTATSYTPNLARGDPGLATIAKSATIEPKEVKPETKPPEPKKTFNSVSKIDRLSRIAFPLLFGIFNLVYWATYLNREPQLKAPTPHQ
Sequence (P47870 26-512): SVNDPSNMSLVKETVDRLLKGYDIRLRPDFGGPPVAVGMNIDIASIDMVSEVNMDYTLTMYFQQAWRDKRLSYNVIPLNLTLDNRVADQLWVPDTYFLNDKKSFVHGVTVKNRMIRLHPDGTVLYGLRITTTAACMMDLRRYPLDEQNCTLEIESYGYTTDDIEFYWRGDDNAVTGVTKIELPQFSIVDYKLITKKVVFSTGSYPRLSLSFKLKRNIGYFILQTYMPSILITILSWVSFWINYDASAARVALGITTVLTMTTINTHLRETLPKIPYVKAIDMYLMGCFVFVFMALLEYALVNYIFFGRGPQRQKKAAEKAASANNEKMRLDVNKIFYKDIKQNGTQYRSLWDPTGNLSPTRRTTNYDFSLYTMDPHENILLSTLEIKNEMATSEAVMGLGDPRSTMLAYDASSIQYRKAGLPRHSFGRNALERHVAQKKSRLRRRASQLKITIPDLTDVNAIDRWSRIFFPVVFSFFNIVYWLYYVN
Sequence (P18507 40-475 partner): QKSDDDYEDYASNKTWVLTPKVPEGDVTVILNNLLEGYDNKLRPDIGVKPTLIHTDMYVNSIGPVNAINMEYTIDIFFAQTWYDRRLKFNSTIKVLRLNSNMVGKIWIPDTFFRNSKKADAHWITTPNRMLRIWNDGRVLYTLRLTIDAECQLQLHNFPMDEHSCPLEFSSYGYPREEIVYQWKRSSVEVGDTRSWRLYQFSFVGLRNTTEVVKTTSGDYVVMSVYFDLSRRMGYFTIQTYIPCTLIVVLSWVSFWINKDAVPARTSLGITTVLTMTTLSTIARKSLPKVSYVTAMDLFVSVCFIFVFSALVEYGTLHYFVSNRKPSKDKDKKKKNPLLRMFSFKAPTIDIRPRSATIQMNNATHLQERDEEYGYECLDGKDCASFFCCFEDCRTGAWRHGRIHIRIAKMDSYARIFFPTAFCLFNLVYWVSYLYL
PARAMETER: Emax at 10 µM

Answered examples (3):
In [3]: df
Out[3]:
                              smiles_string      parameter            val
0  COC[C@]12CC[C@@](C)(O)C[C@@H]1CC[C@H]1[C@@H]3CC[C@H](C(=O)Cn4ccnc4F)[C@@]3(C)CC[C@@H]12  Emax at 10 µM     50 to 500%
1  COC[C@]12CC[C@@](C)(O)C[C@H]1CC[C@H]1[C@@H]3CC[C@H](C(=O)Cn4cc(C#N)cn4)[C@@]3(C)CC[C@@H]12  Emax at 10 µM  1000 to 1500%
2  COC[C@]12CC[C@@](C)(O)C[C@@H]1CC[C@H]1[C@@H]3CC[C@H](C(=O)Cn4ncc5cc(Cl)ccc54)[C@@]3(C)CC[C@@H]12  Emax at 10 µM     50 to 500%

Q: Name the recorded Emax at 10 µM for COC[C@]12CC[C@@](C)(O)C[C@H]1CC[C@H]1[C@@H]3CC[C@H](C(=O)Cn4cc(Cl)cn4)[C@@]3(C)CC[C@@H]12 .
A: 50 to 500%

Q: Name the recorded Emax at 10 µM for COC[C@]12CC[C@@](C)(O)C[C@@H]1CC[C@H]1[C@@H]3CC[C@H](C(=O)Cn4ncc5nccnc54)[C@@]3(C)CC[C@@H]12 .
A: 50 to 500%

----------
target: GABAA receptors composed of the α1β2γ2 subunits (GABRA1/GABRB2/GABRG2) (Homo sapiens, UniProt P14867+P47870); construct: expressed in transfected cells; host or cells: Xenopus laevis oocytes, injected (ratio 1:1:1); assay: Two Electrode Voltage Clamp (TEVC), GABA receptor potentiation in Xenopus laevis oocytes, α1β2γ2; assay type: cell-based; conditions: 10 μM compound, 10 μM GABA, read-out: GABA (α1β2γ2) % efficacy at 10 μM
A collection of compounds and their measured Emax at 10 µM

Answered examples (2):
>>> print(df.to_string())
                                   compound           val
0  COC[C@]12CC[C@@](C)(O)C[C@@H]1CC[C@H]1[C@@H]3CC[C@H](C(=O)Cn4nnc5ncc(Cl)cc54)[C@@]3(C)CC[C@@H]12 [Compound 101]  500 to 1000%
1  COC[C@]12CC[C@@](C)(O)C[C@H]1CC[C@H]1[C@@H]3CC[C@H](C(=O)Cn4nnc(C)n4)[C@@]3(C)CC[C@@H]12 [Compound 29]    50 to 500%

# evaluate next
Q: Name the recorded Emax at 10 µM for COC[C@]12CC[C@@](C)(O)C[C@H]1CC[C@H]1[C@@H]3CC[C@H](C(=O)Cn4ccnn4)[C@@]3(C)CC[C@@H]12 [Compound 32] .
A: 50 to 500%
